test: NCI Yeast Anticancer Drug Screen. Data for the rad14 strain (AID 159);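 also: 0% = growth of vehicle-treated control cultures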; details: S. cerevisiae rad14 strain growth inhibition; at 33.0 µM; active compounds read high
About 79,000 compounds went through this panel and 15% of them were active in at least one assay; those are over-represented in the sample as a whole.
Property: growth inhibition; scope: individual compounds
Answer in %, number only, no unit symbol.

>>> measured_number("O=C(/C=C\\c1cccc(C(F)(F)F)c1)c1ccccc1")
-2

QUERY: Note growth inhibition for the compound shown: Cc1ccc([N+]2=NC(c3ccccc3)=NN(c3ccccc3)C2)cc1
RESULT: 44

QUERY: Note growth inhibition for the compound shown: COc1ccc2c(c1)n([O-])c1ccccc1[n+]2=O
RESULT: 56

QUERY: Note growth inhibition for the compound shown: O=C(/C=C/c1cc(Cl)cc(Cl)c1O)c1cccc(O)c1
RESULT: 98

QUERY: Note growth inhibition for the compound shown: O=[N+]([O-])/C=C/c1cc(Cl)c(/C=C/[N+](=O)[O-])cc1Cl
RESULT: 97

QUERY: Note growth inhibition for the compound shown: Cc1nc2c(Br)cc(Br)cc2c(=O)n1-c1ccccc1NC1OCC(O)C(O)C1O (configuration not stated)
RESULT: 39

QUERY: Note growth inhibition for the compound shown: O=[N+]([O-])c1cc(Cl)cnc1Br
RESULT: 14

QUERY: Note growth inhibition for the compound shown: CCn1c(O)c(C=Nc2ccccc2)s/c1=N/Nc1nc(-c2ccccc2)cs1
RESULT: 7

QUERY: Note growth inhibition for the compound shown: CCCCCOC(=S)SC(=O)OCC
RESULT: 42

QUERY: Note growth inhibition for the compound shown: C[C@]12CC[C@H](O)CC1=CC[C@@H]1C2CC[C@]2(C)C(=O)NC(=O)CC12 (some centres not stated)
RESULT: 64

QUERY: Note growth inhibition for the compound shown: Cc1cccc2c1nc1ccc(Cl)cc1[n+]2C
RESULT: 97

QUERY: Note growth inhibition for the compound shown: OC(CCNCc1ccccc1)c1ccc2ccccc2c1 (configuration not stated)
RESULT: 96
